Test system: BALB/c male mice
protocolDescription: Toxicity test in mice, repeated oral dosing
Type: in vivo
conditionDescription: 5% acacia suspension, 100 mg/kg/day for 7 days, observed for 3 days after administration
quantityKind: Abnormality in body weight and general symptoms

>>> print(df.to_string())
                                   compound          result
0  CCOC(=O)CC(=O)c1cccc2c1nc(CCc1ccccc1)n2C [compound 10]  no abnormality
1  O=C(O)CC(=O)c1cccc2nc(CCc3ccccc3)[nH]c12 [compound 1]  no abnormality
2  COC(=O)CC(O)c1cccc2nc(CCc3ccccc3)[nH]c12 (centres unmarked) [compound 5]  no abnormality
3  O=C(O)CC(O)c1cccc2nc(CCc3ccccc3)[nH]c12 (centres unmarked) [compound 7]  no abnormality
4  COC(=O)CC(=O)c1cccc2nc(CCc3ccccc3)[nH]c12 [compound 2]  no abnormality
